Tested on: L929 cells
Experiment: Measurement of cytotoxicity using mouse tumor cell L929 (neutral red assay)
Type: cell-based
Details: 72 h, cytotoxic activity against L929, neutral red assay, 3 days culture, read-out: LD50 (the source's name)
Catalogue of CC50 values
Provide only the numeric value, understood in nM.

Take a look at these entries with their results.
{"molecule": "O=C(Cc1ccc(Oc2ccc(OCC3(NSc4ccccc4)CCCC3)cc2)cc1)Nc1ccccc1C(=O)O", "unit symbol": "nM", "CC50": 160}
{"molecule": "O=C(Cc1ccc(Oc2ccc(OC3CCC(NC(=O)Nc4ccc(Cl)c(Cl)c4)CC3)cc2)cc1)Nc1ccccc1C(=O)O (stereo not drawn)", "unit symbol": "nM", "CC50": 540}

With those in mind, consider the next molecule.
What value of CC50 has been reported for the following molecule? `O=C(Cc1ccc(Oc2ccc(O[C@H]3CC[C@@H](NC(=O)c4ccc(Oc5cc(Cl)cc(Cl)c5)o4)CC3)cc2)cc1)Nc1ccccc1C(=O)O`
85

###

Listed below: inhibition at 1 µM values for each entry.
System: IgE antibody production from human lymphocyte
Assay: Human in vitro IgE antibody production suppressing activity (lymphocyte culture with IL-4 + IL-10 + anti-CD40 antibody, sandwich ELISA)
Assay type: cell-based
Details: test drug concentration 1 μM, IL-4 + IL-10 + anti-CD40 antibody, read-out: IgE production suppressing ratio (%)
# output: numeric value plus its unit

Completed entries (count: 4):
{"molecule": "CC(=O)Nc1ccc(CCOc2ccc(Oc3ccc(CC(=O)Nc4ccccc4C(=O)O)cc3)cc2)cc1", "tested on": "IgE antibody production from human lymphocyte", "inhibition at 1 µM": "99.4%"}
{"molecule": "CC(C)(C)OC(=O)NC1CCC(Oc2ccc(Oc3ccc(CC(=O)Nc4ccccc4C(=O)O)cc3)cc2)CC1 (centres unmarked)", "tested on": "IgE antibody production from human lymphocyte", "inhibition at 1 µM": "100%"}
{"molecule": "O=C(Cc1ccc(Oc2ccc3cc(OCCN4CCOCC4)ccc3c2)nc1)Nc1ccccc1C(=O)O", "tested on": "IgE antibody production from human lymphocyte", "inhibition at 1 µM": "96.4%"}
{"molecule": "O=C(Nc1ccccc1C(=O)O)c1ccc(Oc2ccc(OCCN3CCCCC3)cc2)cc1", "tested on": "IgE antibody production from human lymphocyte", "inhibition at 1 µM": "56.2%"}

Could you now look at the following molecule, please?
State the recorded inhibition at 1 µM for this entry: O=C(Cc1ccc(Oc2ccc(OC3CCC(NS(=O)(=O)c4ccccc4)CC3)cc2)cc1)Nc1ccccc1C(=O)O (centres unmarked)
100%

###

System: L929 cells
Assay: Measurement of cytotoxicity using mouse tumor cell L929 (neutral red assay)
Format: cell-based
Conditions: 72 h, cytotoxic activity against L929, neutral red assay, 3 days culture, read-out: LD50 (the source's name)
observed property: CC50 (nM)
Write it as a number; the unit nM goes unstated.

{"molecule": "O=C(Cc1ccc(Oc2ccc(O[C@H]3CC[C@@H](NC(=O)c4ccc(-c5ccccc5)cc4)CC3)cc2)cc1)Nc1ccccc1C(=O)O", "observed value": 260}
{"molecule": "O=C(Cc1ccc(Oc2ccc(OC3CCC(NC(=O)Nc4ccccc4)CC3)cc2)cc1)Nc1ccccc1C(=O)O (stereo not shown)", "observed value": 130}

Could you tell me which CC50 is on file for `O=C(CCCOc1ccc2cc(Oc3ccc(CC(=O)Nc4ccccc4C(=O)O)cc3)ccc2c1)Nc1ccccc1C(=O)O` ?
375

Now consider `CN(C)CCOc1ccc(Oc2ccc(CC(=O)Nc3ccccc3C(=O)O)cc2)cc1` .
200

###

Test system: L929 cells
Assay: Measurement of cytotoxicity using mouse tumor cell L929 (neutral red assay)
Format: cell-based
Details: L929, 72 h, read-out: LD50 (μM)
Procedure: [Procedure] The cytotoxicity action on tumor cell was measured by neutral red assay (the method described in the Journal of Tissue Culture Methodology vol.9, p.7 (1984) and Toxicology Letters, vol.24, p.119 (1985)). […] Thereafter, the dye taken into the cell was extracted by adding 100 μL of 50% ethanol-1% acetic acid aqueous solution and the amount of the dye was determined by measuring the absorbance at 490 nm. […]
Measured CC50 values are reported for all entries that follow.
Please reply with the bare figure in µM and do not write the unit itself.

{"smiles data": "O=C(Cc1ccc(Oc2ccc(OCc3ccncc3)cc2)cc1)Nc1ccccc1C(=O)O", "observed value": 1.02}
{"smiles data": "O=C(Cc1ccc(Oc2ccc3cc(OCC(=O)c4ccccc4)ccc3c2)cc1)Nc1ccccc1C(=O)O", "observed value": 2.4}

Now for another entry.
Short answer please: CC50, L929 cells, entry `O=C(Cc1ccc(Oc2ccc(OC3CCOCC3)cc2)cc1)Nc1ccccc1C(=O)O`
1.16

###

Test system: L929 cells
Assay: Measurement of cytotoxicity using mouse tumor cell L929 (neutral red assay)
Assay type: cell-based
Conditions: 72 h, cytotoxic activity against L929, neutral red assay, 3 days culture, read-out: LD50 (the source's name)
Response field label: string, one of Criterion met (CC50 strictly below 200 nM) or Criterion not met.

Field: example entries. Status: answers known.
{"compound": "N#Cc1cccc(SN2CCC(Oc3ccc(Oc4ccc(CC(=O)Nc5ccccc5C(=O)O)cc4)cc3)CC2)c1", "class assignment": "Criterion met"}
{"compound": "CNc1ccccc1C(=O)N[C@H]1CC[C@@H](Oc2ccc(Oc3ccc(CC(=O)Nc4ccccc4C(=O)O)cc3)cc2)CC1", "class assignment": "Criterion not met"}
{"compound": "O=C(Cc1ccc(Oc2ccc3cc(O[C@H]4CC[C@@H](NC(=O)c5cc(Cl)cnc5Cl)CC4)ccc3c2)cc1)Nc1ccccc1C(=O)O", "class assignment": "Criterion not met"}
{"compound": "Cn1c(C(=O)N[C@H]2CC[C@@H](Oc3ccc(Oc4ccc(CC(=O)Nc5ccccc5C(=O)O)cc4)cc3)CC2)cc2ccccc21", "class assignment": "Criterion met"}
{"compound": "O=C(Cc1ccc(Oc2ccc(OC3CCC(NS(=O)(=O)c4ccc(Cl)c(Cl)c4)CC3)cc2)cc1)Nc1ccccc1C(=O)O (stereo not shown)", "class assignment": "Criterion met"}
{"compound": "CC(=O)Nc1ccc(CCOc2ccc(Oc3ccc(CC(=O)Nc4ccccc4C(=O)O)cc3)cc2)cc1", "class assignment": "Criterion not met"}

Then there is this compound:
Lab note: CC50 threshold 200 nM. Does this compound come in strictly under it? O=C(Cc1ccc(Oc2ccc(OC3CCC(NC(=O)c4ccc(Cl)c(Cl)c4)CC3)cc2)cc1)Nc1ccccc1C(=O)O (stereo not shown)
Criterion not met

###

Test system: L929 cells
Assay: Measurement of cytotoxicity using mouse tumor cell L929 (neutral red assay)
Format: cell-based
Conditions: L929, 72 h, read-out: LD50 (μM)
Parameter: CC50. Scope: all listed entries.
Please give a number only; it is taken to be in µM.

Some solved cases for reference:
{"compound": "CCCCC(=O)N[C@H]1CC[C@@H](Oc2ccc3cc(Oc4ccc(C(=O)Nc5ccccc5C(=O)O)cc4)ccc3c2)CC1", "CC50 / µM": 6.8}
{"compound": "COC(=O)N1CCC(Oc2ccc(Oc3ccc(CC(=O)Nc4ccccc4C(=O)O)cc3)cc2)CC1", "CC50 / µM": 0.98}
{"compound": "CC(C)(C)OC(=O)NC1CCC(Oc2ccc(Oc3ccc(CC(=O)Nc4ccccc4C(=O)O)cc3)cc2)CC1 (stereo not shown)", "CC50 / µM": 0.33}

# query: CC50 of entry `COC(=O)N1CCC[C@H]1COc1ccc(Oc2ccc(CC(=O)Nc3ccccc3C(=O)O)cc2)cc1`
2.4

Param item: O=C(Cc1ccc(Oc2ccc(OC3CCC(NS(=O)(=O)c4ccccc4)CC3)cc2)cc1)Nc1ccccc1C(=O)O (stereo not shown)
1.8

Values from patent US6649656B1
